Target: Opioid receptor (Rattus norvegicus, UniProt P33533+P34975+P33535)
Experiment: Inhibition of [3H]-Naloxone binding to opioid receptor in rat cerebral cortex
Format: tissue-based
MEASURED QUANTITY: IC50 (nM)

Some compounds with recorded IC50:
# STRUCTURE NOTATION, UNITS OF MEASURE, IC50
records = [
    ("O=C1[C@H](CCc2ccccc2)N2C(=O)CCN(C(=O)OCCc3ccc(O)cc3)[C@H]2CN1CCc1ccccc1", "nM", 9),
    ("CCCCCN1C[C@@H]2N(C(=O)OCCc3ccc(O)cc3)CCC(=O)N2[C@@H](CCc2ccccc2)C1=O", "nM", 27),
]

P. O=C1[C@H](Cc2ccccc2)N2C(=O)CCN(C(=O)OCCc3ccc(O)cc3)[C@H]2CN1CCc1ccccc1
Q. CCCCCN1C[C@@H]2N(C(=O)OCCc3ccc(O)cc3)CCC(=O)N2[C@@H](Cc2ccccc2)C1=O
Enquiry: Sorting ascending by IC50, which comes first: P or Q ? Please reply using the label of the selected record.
Return: P
(P: 80 nM, Q: 149 nM)

----------
Biological target: Opioid receptor (Rattus norvegicus) (UniProt P33533+P34975+P33535)
Sequence (P33533 whole entry, looked up): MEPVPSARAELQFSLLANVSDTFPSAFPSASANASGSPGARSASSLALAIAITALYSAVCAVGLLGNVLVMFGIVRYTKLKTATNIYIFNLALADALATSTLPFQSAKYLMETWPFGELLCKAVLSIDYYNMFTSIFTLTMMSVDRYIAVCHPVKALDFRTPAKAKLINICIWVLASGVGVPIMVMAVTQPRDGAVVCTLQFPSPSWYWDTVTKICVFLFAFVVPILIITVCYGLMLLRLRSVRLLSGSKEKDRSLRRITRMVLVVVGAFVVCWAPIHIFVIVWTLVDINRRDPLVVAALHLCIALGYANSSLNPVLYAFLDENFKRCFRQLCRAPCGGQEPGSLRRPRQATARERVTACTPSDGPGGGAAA
Sequence (P33535 whole entry, looked up): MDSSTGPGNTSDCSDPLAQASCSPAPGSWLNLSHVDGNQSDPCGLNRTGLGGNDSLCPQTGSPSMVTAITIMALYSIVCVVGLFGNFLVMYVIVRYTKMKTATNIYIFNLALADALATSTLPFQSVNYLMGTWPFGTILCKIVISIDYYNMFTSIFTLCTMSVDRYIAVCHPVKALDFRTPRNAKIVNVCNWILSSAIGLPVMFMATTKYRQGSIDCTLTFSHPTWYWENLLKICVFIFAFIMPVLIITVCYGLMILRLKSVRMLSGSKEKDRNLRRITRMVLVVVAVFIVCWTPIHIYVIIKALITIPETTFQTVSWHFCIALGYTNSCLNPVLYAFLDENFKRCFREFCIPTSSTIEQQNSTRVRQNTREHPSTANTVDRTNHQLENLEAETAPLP
Sequence (P34975 whole entry, looked up): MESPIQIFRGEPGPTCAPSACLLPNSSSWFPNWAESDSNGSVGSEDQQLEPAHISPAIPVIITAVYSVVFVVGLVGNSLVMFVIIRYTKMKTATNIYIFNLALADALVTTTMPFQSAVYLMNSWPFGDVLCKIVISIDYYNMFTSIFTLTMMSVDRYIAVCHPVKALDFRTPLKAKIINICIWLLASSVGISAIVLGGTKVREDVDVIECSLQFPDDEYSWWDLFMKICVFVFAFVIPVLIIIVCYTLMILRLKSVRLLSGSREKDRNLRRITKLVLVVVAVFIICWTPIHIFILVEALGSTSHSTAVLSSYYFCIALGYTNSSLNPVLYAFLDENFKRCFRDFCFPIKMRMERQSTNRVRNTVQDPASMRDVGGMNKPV
Assay: Inhibition of [3H]naloxone binding to opioid receptor in rat cerebral cortex at 1 uM
Format: tissue-based
MEASURED QUANTITY: inhibition (%)

# STRUCTURE NOTATION, inhibition / %
data = [
    ("O=C1[C@H](Cc2ccccc2)N2C(=O)CCN(C(=O)OCCc3ccc(O)cc3)[C@H]2CN1CCc1ccccc1", 96),
    ("CCCCCN1C[C@@H]2N(C(=O)OCCc3ccc(O)cc3)CCC(=O)N2[C@@H](CCc2ccccc2)C1=O", 99),
    ("CCCCCN1C[C@@H]2N(C(=O)OCCc3ccc(O)cc3)CCC(=O)N2[C@@H](Cc2ccccc2)C1=O", 84),
]
